// provenance: paper PMC3154423

target: Jun bZIP K258A;Fos bZIP R158A (human;human, UniProt P05412;P01100 252-315;137-200, K258A|R158A); assay: ITC
Sequence (P05412 252-315 K258A, chain 1 of 2): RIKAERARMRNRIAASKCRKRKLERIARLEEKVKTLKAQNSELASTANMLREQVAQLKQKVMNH
Sequence (P01100 137-200 R158A, chain 2 of 2): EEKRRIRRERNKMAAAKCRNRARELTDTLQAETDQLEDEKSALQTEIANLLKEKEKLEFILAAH

binder: TRE duplex 15-mer (dsDNA) DNA 1: CGCGTGACTCACCCC DNA 2: GGGGTGAGTCACGCG
measurement_units: nM
Kd: 960
